- System: SF-295 CNS
- assay.remarks: NCI-60 one-dose screen, 48 h (100 = growth as untreated, 0 = no growth, -100 = all killed)
- assay.setup: 10 µM unless noted
This is part of a sample that, as a whole, favours compounds with a hit. Of some 83,000 tested, about 20% had one in any assay. The source made the active and inactive calls. How the source made its calls: active means growth percent below 10; inactive means the rest.
Measured growth by item
measurement.type: growth

1) COc1ccccc1/C=C\C(=O)c1ccccc1; 94.2% (inactive)
2) COc1ccc2nc3cc(Cl)ccc3c(NCCNc3c4ccc(Cl)cc4nc4ccc(OC)cc34)c2c1; -93.2% (active)
3) CCC1OC(OC)C=CC1=O (stereo unspecified); 98.1% (inactive)
4) Cc1ccc2c(ccc3c[n+]4c5ccccc5ccc4n32)c1; -1.86% (active)
5) NC(N)=N/N=C/c1ccc([N+](=O)[O-])o1; 93.4% (inactive)
6) CCCCCC(CCCCC)C(=O)O; 108% (inactive)
7) COC(=O)c1nc(=S)[nH]c(C(=O)OC)c1C(=O)c1ccc2ccccc2c1; 98.6% (inactive)
8) CC1(C)CC([P+](c2ccccc2)(c2ccccc2)c2ccccc2)=NN1; 53.2% (inactive)
9) O=C(/C=C\c1ccccc1)N1c2ccccc2CC1c1c[nH]c2ccccc12 (stereo unspecified); 68.7% (inactive)
10) Cc1ccnc(NC(c2ccccc2)c2ccc3cccnc3c2O)c1 (stereo unspecified); 26% (inactive)
11) CC1=CC(O)C2CC1C2(C)C (stereo unspecified); 103% (inactive)
12) CCOC(=O)/C=C/c1ccc([N+](=O)[O-])o1; 99.2% (inactive)
13) N#CSCc1ccc(CSC#N)c(Cl)c1; 102% (inactive)
14) c1ccc2c(c1)Nc1cc3ccccc3cc1N2; 46.2% (inactive)
15) CCCCCCCCCCCCCCCC[N+](C)(CCO)Cc1cnc[nH]1 (stereo unspecified); -31.7% (active)
16) CCC(CC)COC(=O)c1ccc(O)c(O)c1; 90.1% (inactive)
17) N[C@H](C(=O)O)[C@@H]1CC(Cl)=NO1; 31.2% [20 µM] (inactive)
18) CN(Cc1cnc2nc(N)nc(N)c2n1)c1ccc(C(=O)NC(CCC(=O)O)C(=O)O)cc1 (stereo unspecified); 20% (inactive)
19) CCC(=O)Sc1ccccc1C(=O)Nc1ccc(Cl)cc1; 35.5% (inactive)
20) CCC(c1cccc(O)c1)C(CC)c1cccc(O)c1 (stereo unspecified); 58.3% (inactive)
21) NC1=CC(=O)c2ccccc2C1=O; 69% (inactive)
22) CCOc1ccc(-c2nc3ccc(-c4nc5ccc(N6CCN(C)CC6)cc5[nH]4)cc3[nH]2)cc1; -81.9% (active)
23) O=Nc1ccccc1N=O; 85.9% (inactive)
24) CC1OC2CC(=O)OC2C2=C1C(=O)c1c(O)cccc1C2=O (stereo unspecified); -8.69% (active)
25) CC1OC(OC2C(OC3CCC4(C)C(CCC5(C)C4CC=C4C6CC(C)(C)CCC6(CO)C(O)CC45C)C3(C)C)OC(C(=O)O)C(OC3OC(COC4OC(CO)C(O)C(O)C4O)C(O)C(O)C3O)C2O)C(O)C(O)C1O (stereo unspecified); -85.2% (active)
26) N#CSCc1c(Cl)cccc1Cl; 94.8% (inactive)
27) Oc1c(Br)cc(Cl)cc1C(c1cc(Cl)cc(Br)c1O)C(Cl)(Cl)Cl; 9.03% (active)
28) Nc1nc(N)c2c(ccc3c2ccn3Cc2cccc([N+](=O)[O-])c2)n1; -93.3% (active)
29) Cc1ccc(C(=Nc2ccccc2)N=P(c2ccccc2)(c2ccccc2)c2ccccc2)cc1; -93.4% (active)
30) NC(=S)N/N=C\c1nccc2c(C(F)(F)C(F)(F)C(F)(F)F)cccc12; 7.4% (active)
31) Cn1c2ccccc2c2nnc(N/N=C/c3ccccn3)nc21; -25.3% (active)
32) Cc1ccc2nc(-[n+]3cc4ccccc4cc3C)ccc2c1; 33.3% (inactive)
33) CCCCCCC(C)c1ccccc1O (stereo unspecified) (tested in a mixture with another compound); 116% (inactive)
34) O=C1NC(=O)/C(=C/C=C/c2ccccc2)S1; 14.3% (inactive)
35) C1=C(c2ccccc2)C(c2ccc(OCCN3CCCCC3)cc2)Oc2ccccc21 (stereo unspecified); 52.7% (inactive)
36) NC(=O)/C=C/C(=O)c1c(Cl)cccc1Cl; 81.9% (inactive)
37) C/C=C1\SC(=S)NC1=O; 102% (inactive)
38) Cc1c2ccccc2c(C)c2c1ccc1ccccc12; 96.9% (inactive)
39) COC(=O)c1nc(=S)[nH]c(C(=O)OC)c1C(=O)c1ccccn1; -1.15% (active)
40) CCN(CC)CCOc1ccc(-c2nc3cc(Cl)ccc3s2)cc1; -71.5% (active)
41) CC(=Nc1ccc(N(C)C)cc1)c1ccccc1; 44.4% (inactive)
42) COc1cc(NS(C)(=O)=O)ccc1Nc1c2ccccc2nc2ccccc12; 3.7% [2.5 µM] (active)
43) COC(=O)[C@@]12OC[C@]34[C@H]([C@@H](O)[C@@H]1O)[C@@]1(C)[C@H](O)C(=O)C=C(C)[C@@H]1C[C@H]3OC(=O)C(OC(C)=O)[C@@H]24 (stereo partly specified); -53.9% (active)
44) CCCCCCCCCCCCCCNCc1ccccc1; 97.7% (inactive)
45) CN1c2ccccc2C(C)(C)C12C=Cc1cc(O)ccc1O2 (stereo unspecified); 55.9% (inactive)
46) CC(=O)ON=C1C=CC(=C(C#N)c2ccccc2)C=C1; 39.8% (inactive)

Each recorded value in this set is attributed to PubChem BioAssay (NCI).
